Source of measurements: patent US20050009840A1

target: HGFR (Homo sapiens, UniProt P08581); construct: purchased Upstate 14-526; assay: HGFR continuous-coupled spectrophotometric assay; type: biochemical; details: at 1 pM; Table 7, library procedure 42; read-out: % Inhibition (percent c-MET inhibition)
Sequence (P08581 974-1390 limits assumed): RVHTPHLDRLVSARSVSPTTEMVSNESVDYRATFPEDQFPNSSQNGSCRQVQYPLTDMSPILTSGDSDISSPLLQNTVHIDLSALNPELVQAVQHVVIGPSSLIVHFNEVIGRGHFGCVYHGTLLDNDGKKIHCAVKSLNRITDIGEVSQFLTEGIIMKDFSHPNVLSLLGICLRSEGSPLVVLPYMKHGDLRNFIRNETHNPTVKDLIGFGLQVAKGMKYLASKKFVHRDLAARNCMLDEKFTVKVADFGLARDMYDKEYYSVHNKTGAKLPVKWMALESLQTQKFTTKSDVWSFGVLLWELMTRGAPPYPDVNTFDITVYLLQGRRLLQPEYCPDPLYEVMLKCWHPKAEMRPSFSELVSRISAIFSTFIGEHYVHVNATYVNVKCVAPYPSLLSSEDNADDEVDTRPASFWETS
inhibition at 1 pM vs 20%: at or above is y, below is n.

These solved cases illustrate the format of a correct answer.
{"Molecule Smiles": "CCOC(=O)c1nc(COc2cc(-c3ccc(C(=O)N4CCC(N5CCCC5)CC4)cc3)cnc2N)no1", "Category": "n"}
{"Molecule Smiles": "Nc1ncc(-c2ccc(C(=O)N3CCC(N4CCCC4)CC3)cc2)cc1OCc1cc(-c2c(Cl)cccc2Cl)no1", "Category": "n"}
{"Molecule Smiles": "Cc1cc(COc2cc(-c3ccc(C(=O)N4CCC(N5CCCC5)CC4)cc3)cnc2N)no1", "Category": "n"}
{"Molecule Smiles": "Nc1ncc(-c2ccc(C(=O)N3CCC(N4CCCC4)CC3)cc2)cc1OCc1nc2ccccc2s1", "Category": "n"}
{"Molecule Smiles": "Nc1ncc(-c2ccc(C(=O)N3CCC(N4CCCC4)CC3)cc2)cc1OCc1csc(-c2ccc(C(F)(F)F)cc2)n1", "Category": "y"}

Would you say Cc1ccc(F)c(COc2cc(-c3ccc(C(=O)N4CCC(N5CCCC5)CC4)cc3)cnc2N)c1F shows inhibition at 1 pM at minimum 20%? y

Quick check, inhibition at 1 pM >= 20%? Nc1ncc(-c2ccc(C(=O)N3CCC(N4CCCC4)CC3)cc2)cc1OCc1nc(NC2CC2)c2ccccc2n1 n

----------
target: HGFR (Homo sapiens, UniProt P08581); construct: purchased Upstate 14-526; test: HGFR continuous-coupled spectrophotometric assay; type: biochemical; conditions: at 50 nM; Table 5, library procedure 40; read-out: % inhibition (percent c-MET inhibition)
The following ranges of inhibition at 0.05 µM define the classes used here: LOW (below 70%), MEDIUM (70% to below 80%), HIGH (80% or more)

Sample answers from the record:
{"Compound": "CC(Oc1cc(-c2ccc(C(=O)NCc3ccncc3)cc2)cnc1N)c1c(Cl)ccc(F)c1Cl [Example L-27]", "Category": "MEDIUM"}
{"Compound": "C[C@H](Oc1cc(-c2ccc(C(=O)NC[C@H]3CCCO3)cc2)cnc1N)c1c(Cl)ccc(F)c1Cl [Example L-97]", "Category": "LOW"}

Hi, small favor: classify CCN(CC)CCN(C)C(=O)c1ccc(-c2cnc(N)c(OC(C)c3c(Cl)ccc(F)c3Cl)c2)cc1 [Example L-43] by its inhibition at 0.05 µM when you get a moment. HIGH

Class (by measured inhibition at 0.05 µM) for CC(Oc1cc(-c2ccc(C(=O)NCCc3cccc(C(F)(F)F)c3)cc2)cnc1N)c1c(Cl)ccc(F)c1Cl [Example L-94] LOW

Sort into band: CC(Oc1cc(-c2ccc(C(=O)N3CCN(C(C)C)CC3)cc2)cnc1N)c1c(Cl)ccc(F)c1Cl [Example L-134] MEDIUM

// return the class label for C[C@H](Oc1cc(-c2ccc(C(=O)N[C@@H](C)C3CCCCC3)cc2)cnc1N)c1c(Cl)ccc(F)c1Cl [Example L-80] LOW

Would you mind sorting CC(Oc1cc(-c2ccc(C(=O)N3CCC(O)CC3)cc2)cnc1N)c1c(Cl)ccc(F)c1Cl [Example L-29] into the appropriate category? HIGH

----------
molecular target: Met kinase domain (GST fusion protein) (Homo sapiens, UniProt P08581); construct: Purified GST fusion protein containing the Met kinase domain; test: Met transphosphorylation assay (ELISA, poly(glu-tyr) substrate); assay type: biochemical; conditions: read-out: Met IC50;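 note: Cell-free ELISA with plate-bound poly(Glu:Tyr 4:1) phosphorylated by GST-fused Met kinase domain plus ATP and Mn2+, phosphotyrosine detected by anti-phosphotyrosine antibody with HRP and ABTS read-out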
Sequence (P08581 1078-1345 limits assumed): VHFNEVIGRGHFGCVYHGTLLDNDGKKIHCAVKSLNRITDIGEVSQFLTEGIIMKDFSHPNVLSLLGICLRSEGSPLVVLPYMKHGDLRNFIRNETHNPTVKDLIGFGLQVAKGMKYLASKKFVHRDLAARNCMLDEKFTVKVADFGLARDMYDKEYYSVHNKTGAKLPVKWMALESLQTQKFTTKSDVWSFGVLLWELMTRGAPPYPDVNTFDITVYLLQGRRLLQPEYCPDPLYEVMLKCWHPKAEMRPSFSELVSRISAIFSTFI
Measurement Kind: pIC50
pIC50 here is simply -log10 of the concentration when that concentration is written in mol/L.

Field: example entries. Status: answers known.
{"Compound": "Nc1ncc(-c2cccc3[nH]ccc23)cc1OCc1c(Cl)cccc1-c1cccc2[nH]ccc12", "Observed Measurement": 5.33}
{"Compound": "CN1CCN(C(=O)c2ccc(-c3cnc(N)c(OCc4c(F)cccc4Cl)c3)cc2)CC1", "Observed Measurement": 5.71}

// fetch pIC50 given entry CC(Oc1nc(-c2cccc(C(=O)NCCN3CCCC3)c2)cnc1N)c1c(Cl)ccc(F)c1Cl (stereo not shown) 6.77

----------
molecular target: Met kinase domain (GST fusion protein) (Homo sapiens); construct: Purified GST fusion protein containing the Met kinase domain; experiment: Met transphosphorylation assay (ELISA, poly(glu-tyr) substrate); type: biochemical; conditions: read-out: Met IC50
Listed here are compounds together with their documented pIC50.
Keep it numeric: pIC50 is minus log10 of the concentration in mol/L.

The examples below pair each entry with its known result.
{"Compound": "CC(Oc1nc(-c2ccc(C(=O)NC3CCN(C)CC3)cc2)cnc1N)c1c(Cl)ccc(F)c1Cl (centres unmarked) [II-150]", "Study System": "Met kinase domain (GST fusion protein) (Homo sapiens)", "pIC50": 7.17}
{"Compound": "Nc1ncc(-c2ccc3[nH]cc(CN4CCOCC4)c3c2)cc1OCc1c(F)ccc(F)c1Cl [Example I-74]", "Study System": "Met kinase domain (GST fusion protein) (Homo sapiens)", "pIC50": 5.85}
{"Compound": "CN1CCN(C(=O)c2ccc(-c3cnc(N)c(OCc4c(Cl)cccc4Cl)c3)cc2)CC1 [Example I-38]", "Study System": "Met kinase domain (GST fusion protein) (Homo sapiens)", "pIC50": 5.99}

For CN1CCN(C(=O)c2cccc(-c3cnc(N)c(OCc4c(F)ccc(F)c4Cl)n3)c2)CC1 [II-48] , write its pIC50. 5.55

State its pIC50 for this compound: CC(Oc1nc(-c2cccc(C(=O)NC3CCN(C)CC3)c2)cnc1N)c1c(F)ccc(F)c1Cl (centres unmarked) [II-98] 6.68

Note pIC50 for the compound shown: CC(Oc1nc(-c2cccc(C(=O)NCCCN3CCCC3)c2)cnc1N)c1c(Cl)cccc1Cl (centres unmarked) [II-178] 6.47

Fill in pIC50 for record CN1CC=C(c2c[nH]c3ccc(-c4cnc(N)c(OCc5c(Cl)cccc5Cl)c4)cc23)CC1 [Example I-59] 5.80

----------
molecular target: HGFR (Homo sapiens, UniProt P08581); construct: purchased Upstate 14-526; experiment: HGFR continuous-coupled spectrophotometric assay; format: biochemical; conditions: at 50 nM; Table 5, library procedure 40; read-out: % inhibition (percent c-MET inhibition)
Entries and their inhibition at 0.05 µM values follow.
Express it in %; write the number only.

Reference set (5 entries):
{"Compound": "CCOC(=O)CN1CCN(C(=O)c2ccc(-c3cnc(N)c(OC(C)c4c(Cl)ccc(F)c4Cl)c3)cc2)CC1 (stereo not shown)", "inhibition at 0.05 µM, %": 70}
{"Compound": "CC(Oc1cc(-c2ccc(C(=O)NCCc3cccnc3)cc2)cnc1N)c1c(Cl)ccc(F)c1Cl (stereo not shown)", "inhibition at 0.05 µM, %": 68}
{"Compound": "CC(Oc1cc(-c2ccc(C(=O)N[C@H]3CCN(Cc4ccccc4)C3)cc2)cnc1N)c1c(Cl)ccc(F)c1Cl (stereo partly shown)", "inhibition at 0.05 µM, %": 72}
{"Compound": "Cc1cnc(CNC(=O)c2ccc(-c3cnc(N)c(OC(C)c4c(Cl)ccc(F)c4Cl)c3)cc2)cn1 (stereo not shown)", "inhibition at 0.05 µM, %": 76}
{"Compound": "CC(Oc1cc(-c2ccc(C(=O)N3CCC(CO)C3)cc2)cnc1N)c1c(Cl)ccc(F)c1Cl (stereo not shown)", "inhibition at 0.05 µM, %": 79}

Indicate the recorded inhibition at 0.05 µM value for this compound: CCOCCNC(=O)c1ccc(-c2cnc(N)c(OC(C)c3c(Cl)ccc(F)c3Cl)c2)cc1 (stereo not shown) 63

Quick one: give measured inhibition at 0.05 µM for CC(Oc1cc(-c2ccc(C(=O)N(C)C3CCN(C)CC3)cc2)cnc1N)c1c(Cl)ccc(F)c1Cl (stereo not shown) 92

----------
target: Met kinase domain (GST fusion protein) (Homo sapiens); construct: Purified GST fusion protein containing the Met kinase domain; assay: Met transphosphorylation assay (ELISA, poly(glu-tyr) substrate); type: biochemical; details: read-out: Met IC50
Measurement Kind: pIC50
The read-out pIC50 is expressed as -log10 of concentration in moles per litre.

Past entries and their recorded results:
{"Compound": "Nc1ncc(-c2cc3ccccc3[nH]2)cc1OCc1c(Cl)cccc1Cl", "Study System": "Met kinase domain (GST fusion protein) (Homo sapiens)", "pIC50": 5.12}
{"Compound": "CN1CCN(C(=O)c2ccc(-c3cnc(N)c(OCc4c(F)ccc(F)c4Cl)n3)s2)CC1", "Study System": "Met kinase domain (GST fusion protein) (Homo sapiens)", "pIC50": 6.21}
{"Compound": "CC(Oc1nc(-c2ccc(C(=O)NCCCN3CCCC3)cc2)cnc1N)c1c(F)ccc(F)c1Cl (centres unmarked)", "Study System": "Met kinase domain (GST fusion protein) (Homo sapiens)", "pIC50": 7.00}
{"Compound": "Nc1ncc(-c2ccc(C(=O)NCCN3CCOCC3)s2)nc1OCc1c(F)ccc(F)c1Cl", "Study System": "Met kinase domain (GST fusion protein) (Homo sapiens)", "pIC50": 6.15}
{"Compound": "Nc1ncc(-c2ccc[nH]2)cc1OCc1c(Cl)cccc1Cl", "Study System": "Met kinase domain (GST fusion protein) (Homo sapiens)", "pIC50": 5.37}
{"Compound": "Nc1ncc(-c2ccc(C(=O)N3CCC[C@@H]3CN3CCCC3)cc2)cc1OCc1ccc(F)cc1C(F)(F)F", "Study System": "Met kinase domain (GST fusion protein) (Homo sapiens)", "pIC50": 5.82}
{"Compound": "CC(Oc1nc(-c2ccncc2)cnc1N)c1c(Cl)ccc(F)c1Cl (centres unmarked)", "Study System": "Met kinase domain (GST fusion protein) (Homo sapiens)", "pIC50": 7.35}

Assign pIC50 to the following record: CC(Oc1nc(-c2cccc(C(=O)O)c2)cnc1N)c1c(Cl)ccc(F)c1Cl (centres unmarked) 5.87
